Measured values drawn from ChEMBL document CHEMBL1201862 for this set.

# System: KM12
# test.description: NCI tumour cell line growth inhibition, 48 h
Calls of active or inactive are those of the source. No stated cut-off is given here; in the data, active = GI50 up to about 1.1 µM and inactive = higher.
Respond only with the outcome that fits, drawn from true (1) (active), false (0) (inactive)

# example entries with known answers
[[record]]
molecule = "Cc1cc(C#N)c(Nc2ccccc2[N+](=O)[O-])s1"
class_name = "false (0)"

[[record]]
molecule = "COc1cc(C2C3=C(NC(=O)C2C#N)c2ccc4ccccc4c2OCC3)cc(OC)c1OC (stereo not drawn)"
class_name = "false (0)"

[[record]]
molecule = "COCC12CCC(OC)C34C5CC6(O)C(OC)C=C(C5C6OC(=O)c5ccccc5)C(C(OC)C13)C4N(C)C2 (stereo not drawn)"
class_name = "false (0)"


# input for lookup
Prompt line: Outcome? Cc1cc2nc(N3C(=O)/C(=C/c4ccc(Cl)cc4)N=C3c3ccccc3)sc2cc1C
Response line: false (0)

----------
# System: UACC-62
# test.description: NCI tumour cell line growth inhibition, 48 h
Active and inactive are the calls of the source. Rule as the data show it: active = GI50 up to about 1.1 µM and inactive = higher.
measure.name: GI50

Past entries and their recorded results:
[[record]]
compound = "CCCCc1c(OC)cc(O)c2c1C(=O)c1[nH]c(C(=O)O)c(O)c(=O)c1C2=O"
target = "UACC-62"
assay_result = "2.28 µM (inactive)"

[[record]]
compound = "O=C(c1c2c(cc3c1CC1(Cc4cc5c(cc4C1)CCCC5)C3)CCCC2)C(Br)Br"
target = "UACC-62"
assay_result = "14.9 µM (inactive)"

[[record]]
compound = "Cc1cc(C#N)c(Nc2ccccc2[N+](=O)[O-])s1"
target = "UACC-62"
assay_result = "54.2 µM (inactive)"

[[record]]
compound = "COc1ccc(C2CC(c3ccc(NS(=O)(=O)c4cc([N+](=O)[O-])ccc4C)cc3)=NN2S(=O)(=O)c2cc([N+](=O)[O-])ccc2C)cc1 (stereo not given)"
target = "UACC-62"
assay_result = "26.4 µM (inactive)"

[[record]]
compound = "FC(F)(F)c1cccc(C2SCc3nc4ccccc4n32)c1 (stereo not given)"
target = "UACC-62"
assay_result = "> 100 µM (inactive)"


Prompt line: Recorded GI50 of N#Cc1nc(COCCOCc2ccccc2)oc1N , please.
Response line: > 100 µM (inactive)

----------
# System: OVCAR-3
# test.description: NCI tumour cell line growth inhibition, 48 h
The source made the active and inactive calls. Rule as the data show it: active = GI50 up to about 1.1 µM and inactive = higher.
In this section, each of the compounds is paired with its reported GI50.

Please review the entries below; each comes with its answer.
[[record]]
compound = "COc1cc(/C=C2/SC(c3ccccc3)N(c3cccc(NC(C)=O)c3)C2=O)cc(OC)c1OC (stereo not given)"
measure_name = "GI50"
assay_result = "60.1 µM (inactive)"

[[record]]
compound = "COc1ccc(P2(=S)Oc3ccc(C(c4ccccc4)(c4ccccc4)c4ccccc4)cc3O2)cc1 (stereo not given)"
measure_name = "GI50"
assay_result = "16.9 µM (inactive)"

[[record]]
compound = "O=C(NC(Cc1ccc(Br)cc1)C(=O)O)c1ccc(I)cc1 (stereo not given)"
measure_name = "GI50"
assay_result = "> 69.7 µM (inactive)"

[[record]]
compound = "COC1C(OC(N)=O)C(O)C(Oc2ccc3c(O)c(NC(=O)c4ccc(O)c(CC=C(C)C)c4)c(=O)oc3c2C)OC1(C)C (stereo not given)"
measure_name = "GI50"
assay_result = "> 100 µM (inactive)"

[[record]]
compound = "O=C(O)CCSC(=O)Nc1ccccc1F"
measure_name = "GI50"
assay_result = "> 100 µM (inactive)"

[[record]]
compound = "CC1(C)[C@H]2Cc3cc4nc5ccccn5c4cc3[C@@H]1C2"
measure_name = "GI50"
assay_result = "17.5 µM (inactive)"

[[record]]
compound = "O=C1NC(=O)C(C(c2ccc([N+](=O)[O-])cc2)C2C(=O)NC(=O)NC2=O)C(=O)N1"
measure_name = "GI50"
assay_result = "> 100 µM (inactive)"

[[record]]
compound = "Cc1[nH]c2[nH]c(=S)nc(NC(N)=S)c2c1Cc1ccccc1"
measure_name = "GI50"
assay_result = "28 µM (inactive)"


Prompt line: Data request, read-out GI50, for N#CCCC1(CCC#N)S(=O)(=O)OCCOS1(=O)=O
Response line: 32.1 µM (inactive)

Prompt line: For COc1ccc2oc(C(=O)O)c3c2c1CCC3 , what is its reported GI50?
Response line: > 100 µM (inactive)
